# Test system: H-82
# assay text: In vitro growth inhibition, [3H] thymidine incorporation
# Assay type: cell-based
# condition description: Homo sapiens, NCI-H82; H-82, Small Cell Lung Cancer, [H3] Thymidine Incorporation
measured attribute: IC50 (nM)
Quick note: give the figure in nM, leave out the unit.

Q: # get_value(readout='IC50', item= CC(/C=C/[C@@H]1C[C@]1(C)c1ccc2c(c1)C(C)(C)CCC2(C)C)=C\C(=O)O )
Result: 3.6

----------
# System: ME-180
# assay text: In vitro growth inhibition, ATP assay ([…]-GLO)
# Assay type: cell-based
# condition description: Homo sapiens; ME-180, Cervical, ATP
measured attribute: pIC50
Notebook: values listed as pIC50 are -log10 of the concentration (mol/L).

Q: Quick one: pIC50 for CC(/C=C/[C@@H]1C[C@]1(C)c1ccc2c(c1)C(C)(C)CCC2(C)C)=C\C(=O)O [IRX4204] ?
Result: 8.15
